- target-of-assay: L-lactate dehydrogenase A chain (Homo sapiens, UniProt P00338)
- experimental-details: Inhibition of human liver purified lactate dehydrogenase-A using pyruvate as substrate assessed as disappearance of NADH fluorescence
endpoint: Ki (µM)
Dear colleague, please return just the value in µM, with no unit written.

Requested read-out: Ki. Entry: COc1cc(C(=O)N/N=C/c2ccc(-c3cccc(C(=O)O)c3)o2)cc(OC)c1OC
39

* * *

Catalogue of IC50 readings, one per entry.
- target-of-assay: L-lactate dehydrogenase A chain (Homo sapiens, UniProt P00338)
- experimental-details: Inhibition of lactate dehydrogenase-A in human Raji cells assessed as reduction of intracellular lactate level after 3 hrs
- Format: cell-based
Please state the figure in µM; there is no need to write the unit.

Consider the worked cases shown below.
{"smiles-string": "N#CCC(=O)N/N=C/c1ccc(-c2cccc(C(=O)O)c2)o1", "IC50 [µM]": 115}
{"smiles-string": "COc1cc(C(=O)N/N=C/c2cc(-c3cccc(C(=O)O)c3)co2)cc(OC)c1OC", "IC50 [µM]": 52}
{"smiles-string": "COc1cc(C(=O)N/N=C/c2ccc(-c3ccc(C(=O)O)cc3)o2)cc(OC)c1OC", "IC50 [µM]": 134}
{"smiles-string": "O=C(O)c1cccc(-c2ccc(/C=N/NC(=O)c3ccc4[nH]ccc4c3)o2)c1", "IC50 [µM]": 100}
{"smiles-string": "COc1cc(C(=O)N/N=C/c2ccc(-c3cccc(C(=O)O)c3)s2)cc(OC)c1OC", "IC50 [µM]": 105}

Field request: IC50 | item: COc1cc(C(=O)N/N=C/c2ccc(-c3cccc(C(=O)O)c3)o2)cc(OC)c1OC
42

Data provenance is ChEMBL document CHEMBL3608299.
